# assaySystem: T1, BSA-conjugated Aβ heptapeptide VFFAEDC (C-terminal Cys coupled to NSMP-activated BSA);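 also: ELISA of antibody at 10 or 2 µg/ml binding plate-coated BSA–peptide conjugates, detected with HRP anti-human Ig and TMB colour, mock-treated BSA without peptide as negative control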
# T1 construct: also called Peptide 18-23
# T1 peptide: VFFAEDC
# protocolNotes: ELISA
Documented Peptide-ratio 18-23/2-7 across a set of binders
No unit in the answer, only the number.

[
  {
    "binder": "MS-Roche #7.11.H2 Fab (Fab, V domains shown) VH: QVQLVESGGGLVQPGGSLRLSCAASGFTFSSYAMSWVRQAPGKGLEWVSAINANGYKKYYADSVKGRFTISRDNSKNTLYLQMNSLRAEDTAVYYCARGKGNTHKPYGYVRYFDVWGQGTLVTVSS VL: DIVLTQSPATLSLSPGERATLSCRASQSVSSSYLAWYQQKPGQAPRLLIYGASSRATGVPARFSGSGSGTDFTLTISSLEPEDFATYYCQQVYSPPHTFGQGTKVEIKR",
    "observedMeasurement": 0.36
  }
]

// next item, Peptide-ratio 18-23/2-7 requested
Record request: Peptide-ratio 18-23/2-7 value, item MS-Roche #7.2.H4 Fab (Fab, V domains shown) VH: QVQLVESGGGLVQPGGSLRLSCAASGFTFSSYAMSWVRQAPGKGLEWVSAINSKGSRIYYADSVKGRFTISRDNSKNTLYLQMNSLRAEDTAVYYCARGKGNTHKPYGYVRYFDVWGQGTLVTVSS VL: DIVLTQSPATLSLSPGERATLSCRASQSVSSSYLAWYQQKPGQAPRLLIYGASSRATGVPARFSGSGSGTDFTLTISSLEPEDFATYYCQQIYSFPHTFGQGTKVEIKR
0.57
